# ASSAYED_TARGET: Transthyretin (Homo sapiens)
# PROCEDURE_SUMMARY: Binding affinity against prealbumin
Delta G: recorded values
Number only, in kcal/M; omit the unit.

For the compound CCc1cc(C)c(Oc2c(I)c(C)c(CC(N)C(=O)O)c(C)c2I)c(C)c1I (stereo in doubt; 1) , give its reported Delta G.
-9.2

For the compound CCc1cc(C)c(Oc2c(C)c(C)c(CC(N)C(=O)O)c(C)c2C)c(C)c1I (centres undefined) , give its reported Delta G.
-7.8

For the compound CCc1cc(C)c(Oc2c(I)c(C)c(CC(N)C(=O)O)c(C)c2I)c(C)c1C(C)CC (centres undefined) , give its reported Delta G.
-9
